test system: Escherichia coli ATCC 25922; test: Oral formulations on mice with systemic bacterial infection; format: in vivo, ICR mice; settings: 1 mg/kg gavage, three times a day for 7 days, n = 10
Non-standard residues stand in square brackets, D forms with d. Residues, ends and D or L forms follow the SMILES beside them. dPhe(4-Cl) = N[C@H](Cc1ccc(Cl)cc1)C(=O)O
MEASUREMENT NAME: Number of mice that died on each day after infection: day 4 (Mouse)
Please reply with the bare figure in Mouse and do not write the unit itself.

# value lookup — system Escherichia coli ATCC 25922, readout Number of mice that died on each day after infection: day 4, item CC(=O)N[C@H](CCCNC(=N)N)C(=O)N[C@H](CCCCN)C(=O)N[C@H](CC(C)C)C(=O)N[C@H](CC(C)C)C(=O)N[C@H](Cc1ccccc1)C(=O)N[C@H](CCCNC(=N)N)C(=O)N[C@H](CC(C)C)C(=O)N[C@H](CCCCN)C(=O)N[C@H](Cc1ccccc1)C(=O)N[C@H](CCCNC(=N)N)C(=O)N[C@H](CCCCN)C(N)=O [LV-2] (Ac-[dR][dK][dL][dL][dF][dR][dL][dK][dF][dR][dK]-NH2)
0

As a next step, examine the molecule that follows.
# value lookup — system Escherichia coli ATCC 25922, readout Number of mice that died on each day after infection: day 4, item CC(=O)N[C@H](CCCNC(=N)N)C(=O)N[C@H](CCCCN)C(=O)N[C@H](CC(C)C)C(=O)N[C@H](CC(C)C)C(=O)N[C@H](Cc1ccc(Cl)cc1)C(=O)N[C@H](CCCCN)C(=O)N[C@H](CC(C)C)C(=O)N[C@H](CCCCN)C(=O)N[C@H](Cc1ccc(Cl)cc1)C(=O)N[C@H](CCCCN)C(=O)N[C@H](CCCNC(=N)N)C(N)=O [LV-7] (Ac-[dR][dK][dL][dL][dPhe(4-Cl)][dK][dL][dK][dPhe(4-Cl)][dK][dR]-NH2)
2

---

Here the recorded MIC Corynebacterium ATCC 7715 is given for each entry.
tested on: Corynebacterium ATCC 7715; type: cell-based
Non-standard residues stand in square brackets, D forms with d. Residues, ends and D or L forms follow the SMILES beside them. dPhe(3,4-Cl2) = N[C@H](Cc1ccc(Cl)c(Cl)c1)C(=O)O; dPhe(4-CF3) = N[C@H](Cc1ccc(C(F)(F)F)cc1)C(=O)O; dPhe(4-Cl) = N[C@H](Cc1ccc(Cl)cc1)C(=O)O; d2Nal = N[C@H](Cc1ccc2ccccc2c1)C(=O)O; d(hLeu) = CC(C)CC[C@@H](N)C(=O)O; dNva = CCC[C@@H](N)C(=O)O
A bare number is not enough; add the unit after it.

# value lookup — system Corynebacterium ATCC 7715, readout MIC Corynebacterium ATCC 7715, item CC(=O)N[C@H](CCCNC(=N)N)C(=O)N[C@H](CCCCN)C(=O)N[C@H](CC(C)C)C(=O)N[C@H](CC(C)C)C(=O)N[C@H](Cc1ccccc1)C(=O)N[C@H](CCCNC(=N)N)C(=O)N[C@H](CC(C)C)C(=O)N[C@H](CCCCN)C(=O)N[C@H](Cc1ccc2ccccc2c1)C(=O)N[C@H](CCCNC(=N)N)C(=O)N[C@H](CCCCN)C(N)=O [LV-3] (Ac-[dR][dK][dL][dL][dF][dR][dL][dK][d2Nal][dR][dK]-NH2)
4 µg/mL

Moving on to the next compound: CC(=O)N[C@H](CCCCN)C(=O)N[C@H](CCCCN)C(=O)N[C@H](CC(C)C)C(=O)N[C@H](CC(C)C)C(=O)N[C@H](Cc1ccc2ccccc2c1)C(=O)N[C@H](CCCCN)C(=O)N[C@H](CC(C)C)C(=O)N[C@H](CCCCN)C(=O)N[C@H](Cc1ccc2ccccc2c1)C(=O)N[C@H](CCCCN)C(=O)N[C@H](CCCCN)C(N)=O [LV-17] (Ac-[dK][dK][dL][dL][d2Nal][dK][dL][dK][d2Nal][dK][dK]-NH2)
2 µg/mL

Moving on to the next compound: CC(=O)N[C@H](CCCNC(=N)N)C(=O)N[C@H](CCCCN)C(=O)N[C@H](CCC(C)C)C(=O)N[C@H](CCC(C)C)C(=O)N[C@H](Cc1ccc2ccccc2c1)C(=O)N[C@H](CCCNC(=N)N)C(=O)N[C@H](CCC(C)C)C(=O)N[C@H](CCCCN)C(=O)N[C@H](Cc1ccc2ccccc2c1)C(=O)N[C@H](CCCNC(=N)N)C(=O)N[C@H](CCCCN)C(N)=O [LV-14] (Ac-[dR][dK][d(hLeu)][d(hLeu)][d2Nal][dR][d(hLeu)][dK][d2Nal][dR][dK]-NH2)
8 µg/mL

***
# value lookup — system Corynebacterium ATCC 7715, readout MIC Corynebacterium ATCC 7715, item CC(=O)N[C@H](CCCNC(=N)N)C(=O)N[C@H](CCCCN)C(=O)N[C@H](CC(C)C)C(=O)N[C@H](CC(C)C)C(=O)N[C@H](Cc1ccccc1)C(=O)N[C@H](CCCNC(=N)N)C(=O)N[C@H](CC(C)C)C(=O)N[C@H](CCCCN)C(=O)N[C@H](Cc1ccccc1)C(=O)N[C@H](CCCNC(=N)N)C(=O)N[C@H](CCCCN)C(N)=O [LV-2] (Ac-[dR][dK][dL][dL][dF][dR][dL][dK][dF][dR][dK]-NH2)
4 µg/mL

Moving on to the next compound: CCC[C@@H](NC(=O)[C@@H](CCCCN)NC(=O)[C@@H](CCCNC(=N)N)NC(C)=O)C(=O)N[C@H](CCC)C(=O)N[C@H](Cc1ccc2ccccc2c1)C(=O)N[C@H](CCCNC(=N)N)C(=O)N[C@H](CCC)C(=O)N[C@H](CCCCN)C(=O)N[C@H](Cc1ccc2ccccc2c1)C(=O)N[C@H](CCCNC(=N)N)C(=O)N[C@H](CCCCN)C(N)=O [LV-13] (Ac-[dR][dK][dNva][dNva][d2Nal][dR][dNva][dK][d2Nal][dR][dK]-NH2)
4 µg/mL

Moving on to the next compound: CC(=O)N[C@H](CCCNC(=N)N)C(=O)N[C@H](CCCCN)C(=O)N[C@H](CC(C)C)C(=O)N[C@H](CC(C)C)C(=O)N[C@H](Cc1ccc(Cl)cc1)C(=O)N[C@H](CCCCN)C(=O)N[C@H](CC(C)C)C(=O)N[C@H](CCCCN)C(=O)N[C@H](Cc1ccc(Cl)cc1)C(=O)N[C@H](CCCCN)C(=O)N[C@H](CCCNC(=N)N)C(N)=O [LV-7] (Ac-[dR][dK][dL][dL][dPhe(4-Cl)][dK][dL][dK][dPhe(4-Cl)][dK][dR]-NH2)
4 µg/mL

Moving on to the next compound: CC(=O)N[C@H](CCCNC(=N)N)C(=O)N[C@H](CCCCN)C(=O)N[C@H](CC(C)C)C(=O)N[C@H](CC(C)C)C(=O)N[C@H](Cc1ccc2ccccc2c1)C(=O)N[C@H](CCCNC(=N)N)C(=O)N[C@H](CC(C)C)C(=O)N[C@H](CCCCN)C(=O)N[C@H](Cc1ccc2ccccc2c1)C(=O)N[C@H](CCCNC(=N)N)C(=O)N[C@H](CCCCN)C(N)=O [LV-20] (Ac-[dR][dK][dL][dL][d2Nal][dR][dL][dK][d2Nal][dR][dK]-NH2)
2 µg/mL

Moving on to the next compound: CC(=O)N[C@H](CCCNC(=N)N)C(=O)N[C@H](CCCCN)C(=O)N[C@H](CC(C)C)C(=O)N[C@H](CC(C)C)C(=O)N[C@H](Cc1ccc(Cl)c(Cl)c1)C(=O)N[C@H](CCCCN)C(=O)N[C@H](CC(C)C)C(=O)N[C@H](CCCCN)C(=O)N[C@H](Cc1ccc(Cl)c(Cl)c1)C(=O)N[C@H](CCCCN)C(=O)N[C@H](CCCNC(=N)N)C(N)=O [LV-8] (Ac-[dR][dK][dL][dL][dPhe(3,4-Cl2)][dK][dL][dK][dPhe(3,4-Cl2)][dK][dR]-NH2)
2 µg/mL

Moving on to the next compound: CC(=O)N[C@H](CCCNC(=N)N)C(=O)N[C@H](CCCCN)C(=O)N[C@@H](C(=O)N[C@@H](C(=O)N[C@H](Cc1ccc2ccccc2c1)C(=O)N[C@H](CCCNC(=N)N)C(=O)N[C@@H](C(=O)N[C@H](CCCCN)C(=O)N[C@H](Cc1ccc2ccccc2c1)C(=O)N[C@H](CCCNC(=N)N)C(=O)N[C@H](CCCCN)C(N)=O)C(C)C)C(C)C)C(C)C [LV-16] (Ac-[dR][dK][dV][dV][d2Nal][dR][dV][dK][d2Nal][dR][dK]-NH2)
2 µg/mL

Moving on to the next compound: CC(=O)N[C@H](CCCCN)C(=O)N[C@H](CCCCN)C(=O)N[C@H](CC(C)C)C(=O)N[C@H](CC(C)C)C(=O)N[C@H](Cc1ccc2ccccc2c1)C(=O)N[C@H](CCCNC(=N)N)C(=O)N[C@H](CC(C)C)C(=O)N[C@H](CCCCN)C(=O)N[C@H](Cc1ccc2ccccc2c1)C(=O)N[C@H](CCCNC(=N)N)C(=O)N[C@H](CCCCN)C(N)=O [LV-19] (Ac-[dK][dK][dL][dL][d2Nal][dR][dL][dK][d2Nal][dR][dK]-NH2)
2 µg/mL

Moving on to the next compound: CC(=O)N[C@H](CCCNC(=N)N)C(=O)N[C@H](CCCCN)C(=O)N[C@H](CC(C)C)C(=O)N[C@H](CC(C)C)C(=O)N[C@H](Cc1ccc(C(F)(F)F)cc1)C(=O)N[C@H](CCCCN)C(=O)N[C@H](CC(C)C)C(=O)N[C@H](CCCCN)C(=O)N[C@H](Cc1ccc(C(F)(F)F)cc1)C(=O)N[C@H](CCCCN)C(=O)N[C@H](CCCNC(=N)N)C(N)=O [LV-9] (Ac-[dR][dK][dL][dL][dPhe(4-CF3)][dK][dL][dK][dPhe(4-CF3)][dK][dR]-NH2)
2 µg/mL
